Values from the supplement of paper PMC4466140

Target: SpBbc1
Test: SPOT peptide array binding signal intensity (averaged, normalized) (arbitrary units (background-subtracted, floor 0; scale differs between SH3 domains)); higher = stronger binding of the SH3 domain to the peptide
Assign class by SPOT peptide array binding signal intensity: not lower than 10 means condition met; lower than 10 means condition not met.

Observe how each entry below is paired with its result.
1) DFTLPPPPPPPGLDE ... condition not met
2) SKAKRPKFLLDLQIK ... condition not met

Answer whether SPOT peptide array binding signal intensity of RVTRKRPREPKSTND is greater than or equal to 10. condition not met

Can VQKRKLPLPGSIASA be said to have SPOT peptide array binding signal intensity at or above 10? condition not met
